# Test system: THP-1
# assay-comment: Cytotoxicity against human THP1 cells after 20 hrs by MTS assay
# Type: functional, cell-based
# run-parameters: THP-1, 20 h
Form field: IC50 (one value per entry).

| compound | comparative-sign | IC50, µM |
| --- | --- | --- |
| CN(C)C(=O)C1CC(c2cc3ccccc3c3ccccc23)=NO1 (stereo unspecified) | > | 500 |
| CN(C)C(=O)[C@H]1C[C@H](c2cc3ccccc3c3ccccc23)N(Cc2ccccc2)O1 (racemic) | = | 17 |
| CN(C)C(=O)[C@H]1CON(Cc2ccccc2)[C@H]1c1ccc2ccc3cccc4ccc1c2c34 (racemic) | = | 93 |
| CN(C)C(=O)c1cc(-c2ccc3ccc4cccc5ccc2c3c45)no1 | = | 78 |
| CN(C)C(=O)[C@@H]1C[C@H](c2ccc3ccc4cccc5ccc2c3c45)N(C)O1 (racemic) | = | 75 |
| CN(C)C(=O)[C@@H]1CON(C)[C@H]1c1ccc2ccc3cccc4ccc1c2c34 (racemic) | = | 61 |
